Measured IC50, Human IL-21R-TF1 Neutralization Assay by item
measurement.target: human IL-21R expressed on cells (human, UniProt Q9HBE5 20-538)
Sequence (Q9HBE5 20-538 limits assumed): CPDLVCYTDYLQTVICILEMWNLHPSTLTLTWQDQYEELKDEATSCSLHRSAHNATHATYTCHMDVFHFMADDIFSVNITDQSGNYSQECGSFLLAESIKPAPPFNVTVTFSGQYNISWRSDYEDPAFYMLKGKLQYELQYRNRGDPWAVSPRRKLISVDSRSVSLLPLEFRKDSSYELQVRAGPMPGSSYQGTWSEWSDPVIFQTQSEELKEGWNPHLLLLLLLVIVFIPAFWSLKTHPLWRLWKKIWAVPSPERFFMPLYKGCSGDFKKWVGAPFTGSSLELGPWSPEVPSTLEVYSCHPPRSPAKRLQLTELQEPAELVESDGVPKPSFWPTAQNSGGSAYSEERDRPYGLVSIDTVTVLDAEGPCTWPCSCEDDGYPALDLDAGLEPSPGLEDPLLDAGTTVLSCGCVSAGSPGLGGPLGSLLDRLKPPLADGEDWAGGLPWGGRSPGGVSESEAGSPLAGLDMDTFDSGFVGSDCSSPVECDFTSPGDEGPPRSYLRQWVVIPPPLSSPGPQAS
assay.procedure: cell-based or functional assay
readout.label: IC50, Human IL-21R-TF1 Neutralization Assay (nM)

>>> observed_result("scFv L24 (scFv) scFv: QVQLQESGPGLVKTSETLSLTCAVSGYSISSGYYWGWIRQPPGKGLEWIGSISHTGNTYYNPPLKSRVTISVDTSKNQFSLKLSSVTAADTAVYYCARGGGISRPEYWGKGTLVTVSSGGGGSGGGGSGGGGSALSSELTQDPPVSVALGQTVTLTCQGDSLRTYYASWYQQKSGQAPILLLYGKHKRPSGIPDRFSGSTSGDTASLTITGAQAEDEADYYCIARSNKGNPHVLFGGGTQLTVL")
18.7
>>> observed_result("scFv L17 (scFv) scFv: QVQLQESGPGLVKTSETLSLTCAVSGYSISSGYYWGWIRQPPGKGLEWIGSISHTGNTYYNPPLKSRVTISVDTSKNQFSLKLSSVTAADTAVYYCARGGGISRPEYWGKGTLVTVSSGGGGSGGGGSGGGGSALSSELTQDPPVSVALGQTVTLTCQGDSLRTYYASWYQQKSGQAPILLLYGKHKRPSGIPDRFSGSTSGDTASLTITGAQAEDEADYYCSTRSRKGNPHVLFGGGTQLTVL")
60.3
